target: purified stripped human adult hemoglobin (Homo sapiens, UniProt P68871+P69905); construct: using purified stripped human adult hemoglobin as described previously; from tissue; assay: Hemoglobin solution oxygen equilibrium studies (HEMOX-analyzer); assay type: biochemical; conditions: Table V resolved enantiomers; 0.5 mM effector, pH 7.2; n50 control 2.7
Sequence (P69905 2-142 limits assumed): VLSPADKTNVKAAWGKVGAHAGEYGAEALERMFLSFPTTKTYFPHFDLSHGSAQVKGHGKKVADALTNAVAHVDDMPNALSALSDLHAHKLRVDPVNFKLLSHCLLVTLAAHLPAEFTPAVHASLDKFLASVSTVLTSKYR
Sequence (P68871 2-147 limits assumed): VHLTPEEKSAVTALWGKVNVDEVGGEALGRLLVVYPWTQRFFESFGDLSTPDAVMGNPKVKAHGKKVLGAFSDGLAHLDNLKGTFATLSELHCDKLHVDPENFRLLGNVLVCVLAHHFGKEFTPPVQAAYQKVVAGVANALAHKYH
ENDPOINT: n50 (Hill coefficient at 50% saturation)

>>> observed_value("Cc1cc(C)cc(NC(=O)Cc2ccc(OC(C)C(=O)O)cc2)c1 (single isomer, unassigned; (+)) [(+) 18]")
2.6
>>> observed_value("CCC(Oc1ccc(CC(=O)Nc2cc(C)cc(C)c2)cc1)C(=O)O (single isomer, unassigned; (-)) [(−) 20]")
2.8
>>> observed_value("CCC(Oc1ccc(CC(=O)Nc2cc(C)cc(C)c2)cc1)C(=O)O (single isomer, unassigned; (+)) [(+) 20]")
2.7
>>> observed_value("Cc1cc(C)cc(NC(=O)Cc2ccc(OC(C)C(=O)O)cc2)c1 (single isomer, unassigned; (-)) [(−) 18]")
2.5

----------
Property: melting point; scope: individual molecules
ENDPOINT: melting point

>>> observed_value("Cc1cc(C)cc(NC(=O)Cc2ccc(OC3(C(=O)N4CCC[C@H]4C(=O)O)CCCC3)cc2)c1")
"71 to 72 °C"
>>> observed_value("Cc1cc(C)cc(NC(=O)Cc2ccc(OC3(C(=O)N[C@H](Cc4ccccc4)C(=O)O)CCCC3)cc2)c1")
"106 to 108 °C"
>>> observed_value("Cc1cc(C)cc(NC(=O)Cc2ccc(OC3(C(=O)N[C@H](C(=O)O)C(C)C)CCCC3)cc2)c1")
"104 to 106 °C"
>>> observed_value("Cc1cc(C)cc(NC(=O)Cc2ccc(OC3(C(=O)N[C@@H](CO)C(=O)O)CCCC3)cc2)c1")
"58 to 59 °C"
>>> observed_value("Cc1cc(C)cc(NC(=O)Cc2ccc(OC3(C(=O)N[C@H](C(=O)O)[C@@H](C)O)CCCC3)cc2)c1")
"64 to 66 °C"
>>> observed_value("Cc1cc(C)cc(NC(=O)Cc2ccc(OC3(C(=O)N[C@@H](CC(C)C)C(=O)O)CCCC3)cc2)c1")
"119 to 120 °C"
>>> observed_value("Cc1cc(C)cc(NC(=O)Cc2ccc(OC3(C(=O)N[C@@H](Cc4ccc(O)cc4)C(=O)O)CCCC3)cc2)c1")
"74 to 75 °C"

----------
biological target: hemoglobin (Homo sapiens, UniProt P68871+P69905); construct: The whole blood samples were collected in heparinized tubes from healthy volunteers; from tissue; host or cells: human whole blood (heparinized) from healthy volunteers; experiment: In vitro whole blood studies (multi-point tonometry and blood gas analysis); assay type: cell-based; details: Table III
Sequence (P69905 2-142 limits assumed): as the sequence (P69905 2-142 limits assumed) above
Sequence (P68871 2-147 limits assumed): as the sequence (P68871 2-147 limits assumed) above
ENDPOINT: Whole Blood Δp50 mm Hg (mm Hg)

>>> observed_value("Cc1cc(C)cc(NC(=O)Cc2ccc(OC3(C(=O)N[C@H](CCCCNC(=O)OCc4ccccc4)C(=O)O)CCCC3)cc2)c1")
14
>>> observed_value("COC(=O)C(CC(=O)O)NC(=O)C(C)(C)Oc1ccc(CC(=O)Nc2cc(C)cc(C)c2)cc1 (stereo not shown)")
21
>>> observed_value("Cc1cc(C)cc(NC(=O)Cc2ccc(OC3(C(=O)N[C@H](C(=O)O)[C@@H](C)O)CCCC3)cc2)c1")
13
>>> observed_value("Cc1cc(C)cc(NC(=O)Cc2ccc(OC3(C(=O)N[C@@H](CCCCN)C(=O)O)CCCC3)cc2)c1")
"−0.6"
>>> observed_value("Cc1cc(C)cc(NC(=O)Cc2ccc(OC3(C(=O)N[C@H](CC(C)C)C(=O)O)CCCC3)cc2)c1")
40
>>> observed_value("Cc1cc(C)cc(NC(=O)Cc2ccc(OC(C)(C)C(=O)NC(Cc3ccccc3)C(=O)O)cc2)c1 (stereo not shown) [Compound 27]")
10
>>> observed_value("Cc1cc(C)cc(NC(=O)Cc2ccc(OC3(C(=O)N[C@@H](CCCCNC(=O)OCc4ccccc4)C(=O)O)CCCC3)cc2)c1")
0.4
